- System: P388 leukemia ip, CD2F1 mice, survival T/C
- test: NCI In Vivo Anticancer Drug Screen. Data for tumor model P388 Leukemia (intraperitoneal) in CD2F1 (CDF1) mice
- measurement parameters: endpoint: median survival time; dose: 25.0 mg/kg/injection; schedule: Q01DX009 (ip); vehicle: Klucel (hydroxypropylcellulose) (HPC); higher = longer survival
Toxic doses and inconclusive results are not listed.
measure: T/C

[[record]]
compound = "CCCCCCCCCSc1nc2ccc(NC(=O)/C=C/C(=O)O)cc2s1"
measured_value = "107 % of control"

[[record]]
compound = "CC(C)(C)n1nnnc1N"
measured_value = "94 % of control"

[[record]]
compound = "Cc1c(Cl)cccc1NC(=O)Nc1nccs1"
measured_value = "90 % of control"

[[record]]
compound = "Clc1ccc(N=Cc2ccc(C=Nc3ccc(Cl)cc3)cc2)cc1"
measured_value = "94 % of control"

[[record]]
compound = "Nc1cc2[nH]cnc2c(=O)[nH]1"
measured_value = "100 % of control"

[[record]]
compound = "C[N+](C)(C)Cc1ccccc1"
measured_value = "99 % of control"

[[record]]
compound = "C=C1C(=O)OC2CC1C(OC(C)=O)CC1(C)OC1CCC1(C)OC1CCC2(C)O (stereo not given)"
measured_value = "123 % of control"

[[record]]
compound = "Cc1c2oc3c(C)ccc(C(=O)NCCN4CCCCC4)c3nc-2c(C(=O)NCCN2CCCCC2)c(N)c1=O"
measured_value = "117 % of control"

[[record]]
compound = "O=C1C2C3C=CC(C3)C2C(=O)N1CNc1ccc2nc(SC3C=CCCC3)sc2c1 (stereo not given)"
measured_value = "101 % of control"

[[record]]
compound = "CCOC(=O)NC(=S)c1ccc[nH]1"
measured_value = "87 % of control"


Data provenance: PubChem BioAssay AID330
